The reported numbers originate from paper PMC6476888.

experimental_endpoint: melting point

Below, 3 compounds whose answers are already recorded.
mol_smiles	melting point
O=C(Nc1c(F)c(F)cc(F)c1F)c1ccc2ccccc2c1O	160 to 163 °C
O=C(Nc1ccc(F)c(F)c1F)c1ccc2ccccc2c1O	173 to 175 °C
Cc1ccc(C(F)(F)F)cc1NC(=O)c1ccc2ccccc2c1O	140 to 143 °C

Incoming: So what does the record say about melting point for O=C(Nc1cc(F)c(F)c(F)c1)c1ccc2ccccc2c1O ?
Outgoing: 242 to 247 °C

Incoming: So what does the record say about melting point for O=C(Nc1cc(F)ccc1F)c1ccc2ccccc2c1O ?
Outgoing: 153 to 155 °C

Incoming: So what does the record say about melting point for Cc1ccc(NC(=O)c2ccc3ccccc3c2O)cc1C(F)(F)F ?
Outgoing: 168 to 171 °C

Incoming: So what does the record say about melting point for O=C(Nc1ccc(Cl)c(C(F)(F)F)c1)c1ccc2ccccc2c1O ?
Outgoing: 173 to 175 °C

Incoming: So what does the record say about melting point for O=C(Nc1ccc(Br)c(F)c1)c1ccc2ccccc2c1O ?
Outgoing: 199 to 202 °C

Incoming: So what does the record say about melting point for O=C(Nc1ccc(F)cc1C(F)(F)F)c1ccc2ccccc2c1O ?
Outgoing: 135 to 137 °C

Incoming: So what does the record say about melting point for COc1ccc(Cl)c(NC(=O)c2ccc3ccccc3c2O)c1 ?
Outgoing: 159 to 161 °C

Incoming: So what does the record say about melting point for O=C(Nc1ccc(F)c(C(F)(F)F)c1)c1ccc2ccccc2c1O ?
Outgoing: 164 to 166 °C

###

# maps each entry to its pIC50
# Test system: HCT116^+/+
# method: Antiproliferative assay (MTS, 72 h) on HCT116 wild type
# Assay type: cell-based, human
# details: MTS, 72 h incubation; read-out: Activity IC50 HCT116^+/+
# Experimental: All of the synthesized compounds were tested for their antiproliferative activity against human colon cancer (Table 1). We used both the wild-type and p53-negative cell lines (HCT116^+/+ and HCT116^−/−, respectively). […] The cells were seeded in 96-well plates (Nunc) at a density of 5,000 cells/well (HCT116) and 4,000 cells/well (NHDF) and incubated at 37 °C for 24 h. […] The optical densities of the samples were analyzed at 490 nm using a Synergy 4 multi-plate reader (BioTek, Winooski, VT, USA). […]
Conceptually, pIC50 converts a concentration in mol/L into minus its log10.

Below, 5 compounds whose answers are already recorded.
mol_smiles	pIC50
O=C(Nc1cccc(Cl)c1)c1ccc2ccccc2c1O	5.33
O=C(Nc1cccc(Cl)c1Cl)c1ccc2ccccc2c1O	5.33
O=C(Nc1ccc([N+](=O)[O-])cc1)c1ccc2ccccc2c1O	6.39
O=C(Nc1ccc(Br)cc1)c1ccc2ccccc2c1O	5.28
O=C(Nc1cc(Cl)c(Cl)c(Cl)c1)c1ccc2ccccc2c1O	5.88

Let us examine a further case.
Incoming: So what does the record say about pIC50 for O=C(Nc1c(Cl)cc(Cl)cc1Cl)c1ccc2ccccc2c1O ?
Outgoing: 4.71

###

# Tested on: HCT116^−/−
# method: Antiproliferative assay (MTS, 72 h) on HCT116 with p53 deletion
# Type: cell-based, human
experimental_endpoint: selectivity towards the p53 null cells (HCT116 p53^−/− vs wild type)

compound	result
O=C(Nc1ccc(Br)c(F)c1)c1ccc2ccccc2c1O [4v]	not selective
O=C(Nc1ccc(Cl)c(Cl)c1)c1ccc2ccccc2c1O [5h]	not selective
O=C(Nc1ccc(Br)c(Cl)c1)c1ccc2ccccc2c1O [5t]	not selective
